- TESTED_ON: Mitogen-activated protein kinase 14 (Homo sapiens)
- Sequence (Q16539 whole entry): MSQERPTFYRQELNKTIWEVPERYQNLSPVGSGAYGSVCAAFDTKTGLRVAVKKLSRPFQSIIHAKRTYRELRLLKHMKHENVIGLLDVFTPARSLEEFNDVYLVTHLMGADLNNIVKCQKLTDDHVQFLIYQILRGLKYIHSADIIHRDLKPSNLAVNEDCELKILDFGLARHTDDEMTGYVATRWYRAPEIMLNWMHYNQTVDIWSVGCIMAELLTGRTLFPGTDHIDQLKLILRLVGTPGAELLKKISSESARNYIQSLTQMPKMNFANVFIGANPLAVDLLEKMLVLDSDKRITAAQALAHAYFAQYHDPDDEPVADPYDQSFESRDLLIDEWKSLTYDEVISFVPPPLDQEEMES
- ASSAY_TEXT: Inhibition of p38alpha MAPK
ASSAY_ENDPOINT: IC50 (nM)
The figure you give is taken to be in nM; do not add the unit.

Per the records, this compound ( COc1ccc(C(=O)NN2CCOCC2)cc1-c1n[nH]c2nc(Nc3ccc(F)cc3F)ccc12 ) has IC50 equal to 0.7

* * *

- TESTED_ON: Phosphodiesterase 4 (Homo sapiens, UniProt P27815+Q08499+Q07343+Q08493)
- ASSAY_TEXT: Inhibition of PDE4 in human U937 cells by cAMP SPA enzyme assay
- CONDITION_PARAMETERS: u-937
pIC50: −log10 of the molar value.
ASSAY_ENDPOINT: pIC50

CCn1ncc2c(-c3cncc(C)c3)c(/C=C/C(=O)O)cnc21 :: < 6.00

Lab book: pIC50 of CCn1ncc2c(-c3cncc(Br)c3)c(C#N)c(C)nc21 noted as < 6.00

* * *

Reported IC50 values follow for various compounds
- Test system: PBMC
- ASSAY_TEXT: Antiinflammatory activity in […] PBMC assessed as inhibition of LPS-induced TNFalpha by ELISA
- Format: functional, cell-based
- CONDITION_PARAMETERS: Homo sapiens
Numbers only; they are read as nM.

CCn1ncc2c(-c3cncc(C)c3)c(/C=C/C(=O)O)cnc21 :: 15.7

With those in mind, consider the next compound.
According to the records, this compound CCn1ncc2c(-c3cncc(Br)c3)c(C#N)c(C)nc21 displays IC50 of 27

* * *

- Test system: THP-1
- ASSAY_TEXT: Cytotoxicity against human THP1 cells at 10 uM
- Format: functional
Criterion: inhibition at 10 µM meeting or surpassing 9%. Met: rule met. Not met: rule not met.

Cc1ccc(O)c(C(=O)c2cnc3c(c2)c(C)nn3C)c1 :: rule met

// inclusive: inhibition at 10 µM at least 9%? input: CCO[C@@H](C1=CC2C(C)=NN(c3ccccc3)C2N=C1)[C@H](OC)[C@@H](O)COC (stereo partly drawn)
rule not met

Hi, just wondering whether CCO[C@@H](C1=CC2C(c3ccc(O)cc3)=NN(c3ccccc3)C2N=C1)[C@H](O)[C@@H](O)CO (stereo partly drawn) shows inhibition at 10 µM of 9% or higher.
rule not met

Does the molecule Cc1ccc(O)c(C(=O)c2cnc3[nH]c(=O)[nH]c(=O)c3c2)c1 have recorded inhibition at 10 µM that is 9% or more?
rule not met

Please check the record Cc1nn(C)c2ncc(CCCO)cc12 and state if its inhibition at 10 µM is at or above 9%.
rule not met

Please tell me: is the molecule O=c1[nH]c(=O)c2cc(CCCO)cnc2[nH]1 at or over 9% in terms of inhibition at 10 µM?
rule met

Is it the case that COC[C@H](O)[C@@H](OC)[C@@H](OC)C1=CC2C(C)=NN(C)C2N=C1 (stereo partly drawn) has inhibition at 10 µM reaching or exceeding 9%?
rule not met

Test whether the molecule Cc1ccc(O)c(C(=O)c2cnc3nc4ccccc4n3c2)c1 records inhibition at 10 µM of 9% or higher.
rule met

Answer whether inhibition at 10 µM of Cc1ccc(-c2cc3ncc(C(=O)c4cc(C)ccc4O)cn3n2)cc1 is greater than or equal to 9%.
rule not met

Is inhibition at 10 µM at least 9%? Consider CCO[C@@H](C1=CC2C(c3ccc(OC)cc3)=NN(c3ccccc3)C2N=C1)[C@H](OC)[C@@H](O)COC (stereo partly drawn)
rule not met

Would you say Cc1ccc(O)c(C(=O)c2cnc3onc(C)c3c2)c1 shows inhibition at 10 µM at minimum 9%?
rule met

Is the recorded value of inhibition at 10 µM equal to or greater than 9% for this molecule? OCCCc1cnc2ncnn2c1
rule not met

Check if inhibition at 10 µM >= 9% (inclusive). Item: CCn1ncc2cc(CCCOC(C)=O)cnc21
rule met

State whether the measured inhibition at 10 µM reaches 9%, counting equality as reaching it, for CCn1ncc2cc(CCCO)cnc21
rule not met

Please check the record Cc1nn(C)c2ncc(C(=O)c3cc(F)ccc3O)cc12 and state if its inhibition at 10 µM is at or above 9%.
rule met

In plain terms: is recorded inhibition at 10 µM at least 9% for COc1ccc(-c2nn(-c3ccccc3)c3ncc(CCCO)cc23)cc1 ?
rule met

* * *

- System: THP-1
- ASSAY_TEXT: Cytotoxicity against human THP1 cells at 10 uM
- Assay type: functional
Values of inhibition at 10 µM greater than or equal to 9% map to yes; values below map to no.

Worked examples follow.
Cc1cc(C)c(O)c(C(=O)c2cnc3c(c2)c(C)nn3-c2ccccc2)c1 :: yes
Cc1nn(-c2ccccc2)c2ncc(CCCO)cc12 :: yes
CCO[C@@H](C1=CC2C(C)=NN(c3ccccc3)C2N=C1)[C@H](O)[C@@H](O)COC (some centres not stated) :: no
Cc1ccc(O)c(C(=O)c2cnc3c(c2)c(C)nn3-c2ccccc2)c1 :: yes
CC(=O)OCCCc1cnc2ncnn2c1 :: no
Cc1ccc(O)c(C(=O)c2cnc3onc(-c4ccccc4)c3c2)c1 :: yes
COc1ccc(-c2nn(-c3ccccc3)c3ncc(C(=O)c4cc(C)ccc4O)cc23)cc1 :: yes
CC(=O)OCCCc1cnc2ccnn2c1 :: no

Is inhibition at 10 µM for COC[C@H](O)[C@@H](OC)[C@@H](OC)c1cnc2cc(-c3ccc(C)cc3)nn2c1 at or above 9%?
no

* * *

inhibition at 10 µM reference
- Tested on: THP-1
- ASSAY_TEXT: Cytotoxicity against human THP1 cells at 10 uM
- Assay type: functional
Hi! Could you send only the number? It should be in %, unit omitted.

CCO[C@@H](C1=CC2C(C)=NN(c3ccccc3)C2N=C1)[C@H](O)[C@@H](O)CO (stereo partly drawn) :: 9

The reported inhibition at 10 µM of the molecule OCCCc1cnc2nc3ccccc3n2c1 was 9

Note to self: inhibition at 10 µM recorded for Cc1ccc(-c2cc3ncc(CCCO)cn3n2)cc1 was 9
